Would you mind telling me the reported protein stability index of each entry?
Assay Notes: protein stability index of a GFP-peptide fusion (GPS, HEK-293T) (PSI 1-6); higher = more stable;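 note: 24-mer peptide tiles fused after GFP, lentivirally expressed, FACS-sorted into six equal bins by GFP/DsRed ratio, decoded by Illumina sequencing, PSI is the read-weighted mean bin number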
Condition Context: treatment: MLN4924 1 uM, 8 h; c terminus: a fixed tail appended
Numbers only.

| Primary Sequence | protein stability index |
| --- | --- |
| RRRQRSEKKKAHYRQSSFPHCSDL [KCNA4] | 3.98 |
| SSRVIAASYDKTVRAWDLETGKLL [WDR88] | 3.04 |
| AVFAVSAVVHEYALAVCLSFFYPV [SOAT1] | 3.07 |

For the 2 sequences below, give their protein stability index values.
1. PSRKYISTKAIPEKYGAVREVILK [ZBED1]
2. ELQGLPELHEECEGNHPSARKLTA [NET1]

### Response
[2.92, 4.56]

For the 3 sequences below, give their protein stability index values.
1. TYVDKKRDLLGALKHWRRAMELRH [FEM1A]
2. AFEAARDLDACALVRGHRRRLLRR [ZSWIM9]
3. QPRGGVSSRIEQGEWGGRHPSWPW

### Response
2.31
4.45
3

For the 6 sequences below, give their protein stability index values.
1. SLPTTAPSNSSSLTLSGIKEDNSL [MYBL2]
2. HCTVKLRQTTGLMEYCLEVIKEND [TRIM9]
3. RLVSSPCCIVTSTYGWTANMERIM [HSP90AB1]
4. EDQWGKGTLTPRMTTDFDLSLDNS [TRIM9]
5. SQESALGNTVPAVEPGTPPLDILA [DNAAF3]
6. KHFLEAIENNKYGWFWVCPGGGDI [ZC3H15]

### Response
[5.2, 3.32, 2.35, 4.9, 5.14, 2.43]

For the 8 sequences below, give their protein stability index values.
1. LWWDPIQRLLFSGASDNSIIMWDI [WDFY1]
2. ICYLPHWMMQNLLLEEGGLVQVES [UFD1]
3. SVQVDGQARTQKLQGLIPGARYEV [TNXB]
4. GKEPLDPDPSHSPSDKVGRADAHL [TOR1AIP2]
5. VKTRLEQEIATYRRLLEGEDAHLT [KRT17]
6. LRDKIMATTIDNSRVILEIDNARL [KRT15]
7. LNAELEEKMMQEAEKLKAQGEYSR [CCDC89]
8. VTLLVRGVCYSESQSSASQPRLSY [CLCN6]

### Response
1. 2.69
2. 2.7
3. 3.28
4. 5.32
5. 3.77
6. 2.66
7. 3.71
8. 2.29

For the 8 sequences below, give their protein stability index values.
1. DLAKTGCVDLTITNLLEGAVAFMP [AUP1]
2. EDVKCQEDQKLQVLLTQIESKKHQ [TRIM15]
3. NQEYKMLLDIKTRLEQEIATYRSL [KRT13]
4. TENRRLESKIREHLEKKGPQVRDW [KRT18]
5. SRLVKYPLLLKEILKHTPKEHPDV [NET1]
6. EDGRPSLGSPYGQPPRFPVPHNGS [PDLIM4]
7. TCTDRSGISTGHWSGEVKDKNVQV [FUT8]
8. FMLMLLVLGIQVKCFHEIITIGYR [CDS1]

### Response
1: 2.05; 2: 5.18; 3: 2.78; 4: 3.95; 5: 2.92; 6: 4.63; 7: 4.49; 8: 3.3

For the 3 sequences below, give their protein stability index values.
1. LLAPEAGSHPQQTQKLEEIKENAQ [TOR1AIP2]
2. LGQIVLLPAEARERSRGRSISRGR [MATN2]
3. EESPNGSEGACEKEKQSRDFQGRI [RHOBTB1]

### Response
[5.47, 4.21, 5.32]

# credit: the supplement of paper PMC10567573
